This collection of values is drawn from the Human Domainome abundance scans (Beltran et al. 2025).

B1: Homeobox protein SIX6, residues 134 to 184; numbered along this chain, O95475 (parent)
chain: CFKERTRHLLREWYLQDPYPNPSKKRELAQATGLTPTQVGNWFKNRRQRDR

Variants of: B1
PROCEDURE_SUMMARY: abundance fitness (aPCA) (normalised: wild type 0, dead -1); higher = more abundant; growth selection in yeast, the domain comes from the species named
SETUP_CONDITIONS: Homo sapiens
ASSAY_ENDPOINT: abundance fitness
Please give only the number in your answer, with no unit.

Req: Report abundance fitness for `Q38M`
Resp: -0.442

---
Req: Indicate its recorded abundance fitness; the variant in question is `G40T`
Resp: -0.175

Req: Let me know recorded abundance fitness for `W42A` , thanks.
Resp: -1.05

Req: Output measured abundance fitness for this item: `P36S`
Resp: -0.177

Req: Determine its reported abundance fitness: `Q38D`
Resp: -0.626

Req: Look up and report measured abundance fitness for this entry: `N41S`
Resp: -0.342
